Attribute: selectivity ratio
ASSAY_NOTES: Selectivity index, ratio of CC50 for cytotoxicity against African green monkey Vero cells to EC50 for antiviral activity against Chikungunya virus infected in African green monkey Vero cells assessed as reduction in viral induced cell death
Format: toxicity, cell-based
MEASUREMENT_SETUP: read-out: Ratio CC50/EC50
PROPERTY_MEASURED: selectivity ratio

molecule=CCNc1nc(C)cc(N2CCN(C(=O)c3ccc(Br)cc3)CC2)n1 result="> 159"
molecule=CCNc1nc(C)cc(N2CCN(C(=O)c3ccc(Cl)c(C(F)(F)F)c3)CC2)n1 result="> 11"
molecule=Cc1cc(N2CCN(C(=O)c3ccc(Br)cc3)CC2)nc(N(C)C)n1 result="> 15"
molecule=CCNc1nc(C)cc(N2CCN(C(=O)c3ccc(C)cc3C)CC2)n1 result="> 1"
molecule=CCNc1nc(C)cc(N2CCN(C(=O)c3ccc(Cl)cc3Cl)CC2)n1 result="< 0.47"
molecule=CCNc1nc(C)cc(N2CCN(C(=O)c3ccccc3)CC2)n1 result="> 150"
molecule="CCNc1nc(C)cc(N2CCCC(NC(=O)c3cc(Cl)cc(Cl)c3)C2)n1 (centres undefined)" result="< 0.12"
molecule=CCNc1cc(C)nc(N2CCN(C(=O)c3ccc(I)cc3)CC2)n1 result="> 34"
molecule=CCNc1nc(C)cc(N2CCN(C(=O)c3ccc(Cl)c([N+](=O)[O-])c3)CC2)n1 result="> 20"

###

ASSAY_NOTES: Aqueous solubility of compound at pH 7.4 by HPLC analysis
Type: physicochemical
Attribute: solubility
PROPERTY_MEASURED: solubility (µM)

compound="CCNc1nc(C)cc(N2CCCC(NC(=O)c3cc(Cl)cc(Cl)c3)C2)n1 (configuration not stated)" comparator== number=22
compound=Nc1nc(N2CCN(C(=O)c3cc(Cl)cc(Cl)c3)CC2)c2nc[nH]c2n1 comparator== number=47
compound=CCNc1ccnc(N2CCN(C(=O)c3ccc(Cl)cc3)CC2)n1 comparator=> number=120
compound=CCNc1nc(C)cc(N2CCN(C(=O)c3ccc(OC)cc3)CC2)n1 comparator=> number=120
compound=CCNc1cc(C)nc(N2CC(NC(=O)c3cc(Cl)cc(Cl)c3)C2)n1 comparator== number=47
compound=CCNc1nccc(N2CCN(C(=O)c3ccc(F)cc3)CC2)n1 comparator=> number=120
compound="CCNc1cc(C)nc(N2CCCC(NC(=O)c3cc(Cl)cc(Cl)c3)C2)n1 (configuration not stated)" comparator== number=31

###

ASSAY_NOTES: Selectivity index, ratio of CC50 for cytotoxicity against African green monkey Vero cells to EC50 for antiviral activity against Chikungunya virus infected in African green monkey Vero cells assessed as reduction in viral induced cell death
Format: toxicity, cell-based
MEASUREMENT_SETUP: read-out: Ratio CC50/EC50
Attribute: selectivity ratio
PROPERTY_MEASURED: selectivity ratio

compound=Cc1nc(Cl)c(N)c(N2CCN(C(=O)c3ccc(Cl)cc3)CC2)n1 property_measured="selectivity ratio" result="> 1"
compound=CCNc1cc(C)nc(N2CCN(C(=O)c3cccc(Br)c3)CC2)n1 property_measured="selectivity ratio" result="> 20"
compound=CCNc1cc(C)nc(N2CCN(S(=O)(=O)c3ccc4ccccc4c3)CC2)n1 property_measured="selectivity ratio" result=1.7
compound=CCNc1nc(C)cc(N2CCN(C(=O)c3ccc(F)cc3F)CC2)n1 property_measured="selectivity ratio" result="> 1"
compound=Cc1cc(N2CCN(C(=O)c3cccc(Br)c3)CC2)nc(N(C)C)n1 property_measured="selectivity ratio" result="> 1"
compound=CCNc1nc(C)cc(N2CCN(C(=O)c3cccc(C(F)(F)F)c3)CC2)n1 property_measured="selectivity ratio" result=60
compound=CCNc1cc(C)nc(N2CC3CCC(C2)N3C(=O)c2ccc(Cl)cc2)n1 property_measured="selectivity ratio" result="> 1.11"
compound=CCNc1cc(C)nc(N2CCN(C(=O)c3cccc([N+](=O)[O-])c3)CC2)n1 property_measured="selectivity ratio" result="> 24"
compound=CCNc1cc(C)nc(N2CCC(NC(=O)c3cc(Cl)cc(Cl)c3)CC2)n1 property_measured="selectivity ratio" result="< 0.48"
compound=Cc1cc(N2CCN(S(=O)(=O)c3ccc(F)cc3)CC2)nc(N2CCCC2)n1 property_measured="selectivity ratio" result=1.9
compound=Cc1cc(N(C)C)nc(N2CCN(C(=O)c3ccc(Br)cc3)CC2)n1 property_measured="selectivity ratio" result=6.02
compound=CCNc1nc(C)cc(N2CCN(C(=O)c3ccc(Cl)c(Cl)c3)CC2)n1 property_measured="selectivity ratio" result=81
compound=CCNc1nc(C)cc(N2CCN(C(=O)c3cccc(I)c3)CC2)n1 property_measured="selectivity ratio" result="> 98"
compound=CCNc1nc(C)cc(N2CCN(C(=O)c3cc(Cl)cc(Cl)c3)CC2)n1 property_measured="selectivity ratio" result=173
compound=CCNc1nc(C)cc(N2CCN(Cc3ccc(F)cc3)CC2)n1 property_measured="selectivity ratio" result=2.1
compound="CCNc1nc(C)cc(N2CCC3(CCN(C(=O)c4ccc(Cl)cc4)C3)C2)n1 (stereo unspecified)" property_measured="selectivity ratio" result=2.5

###

Attribute: CC50 at 120 h
ASSAY_NOTES: Cytotoxicity against African green monkey Vero cells assessed as reduction in overall metabolic activity incubated for 5 days by MTS reagent based absorbance method
Type: toxicity, cell-based
MEASUREMENT_SETUP: chlorocebus sabaeus, time 5 day
PROPERTY_MEASURED: CC50 at 120 h

compound=CCNc1nc(C)cc(N2CCN(C(=O)c3ccc([N+](=O)[O-])cc3Cl)CC2)n1 result="> 100 µM"
compound=CCNc1nc(N2CCN(C(=O)c3ccc(Br)cc3)CC2)cc(C(F)(F)F)n1 result="> 100 µM"
compound=CCNc1nc(C)cc(N2CCN(C(=O)c3ccc(F)cc3F)CC2)n1 result="> 100 µM"
compound=CCNc1nc(C)cc(N2CCN(C(=O)c3ccccc3)CC2)n1 result="> 308 µM"
compound=CCNc1nc(C)cc(N2CCC(NC(=O)c3cc(Cl)cc(Cl)c3)CC2)n1 result="> 100 µM"
compound=CCNc1cc(C)nc(N2CCN(C(=O)c3ccc(Br)cc3)CC2)n1 result="> 100 µM"
compound=CCNc1cc(C(F)(F)F)nc(N2CCN(C(=O)c3cc(Cl)cc(Cl)c3)CC2)n1 result="> 25 µM"
compound=CCNc1nc(C)cc(N2CCN(C(=O)c3cccc(Br)c3)CC2)n1 result="> 100 µM"
compound=CCNc1nc(N2CCN(C(=O)c3cc(Cl)cc(Cl)c3)CC2)cc(C(F)(F)F)n1 result="> 50 µM"
compound=CCNc1cc(C)nc(N2CC3CCC(C2)N3C(=O)c2ccc(Cl)cc2)n1 result="> 88 µM"
compound=CCNc1cc(C)nc(N2CCN(C(=O)c3cc(Cl)cc(Cl)c3)CC2)n1 result="> 100 µM"
compound=CCNc1cc(C)nc(N2CCN(C(=O)c3ccc(I)cc3)CC2)n1 result="> 100 µM"
compound=CCNc1nccc(N2CCN(C(=O)c3ccc(F)cc3)CC2)n1 result="> 304 µM"
compound=Cc1cc(N2CCN(C(=O)c3ccc(Br)cc3)CC2)nc(N(C)C)n1 result="> 100 µM"
compound="CCNc1nc(C)cc(N2CCC3(CCN(C(=O)c4ccc(Cl)cc4)C3)C2)n1 (centres undefined)" result="45 µM"
compound=CCNc1nc(C)cc(N2CCN(C(=O)c3ccc(I)cc3)CC2)n1 result="58 µM"
compound=CCNc1cc(C(F)(F)F)nc(N2CCN(C(=O)c3ccc(Cl)c(Cl)c3)CC2)n1 result="> 25 µM"
compound=CCNc1cc(C)nc(N2CCN(C(=O)c3cccc([N+](=O)[O-])c3)CC2)n1 result="> 100 µM"
compound=CCNc1nc(C)cc(N2CCN(C(=O)c3cccc(Cl)c3)CC2)n1 result="248 µM"
compound="CCNc1cc(C)nc(N2CC3CN(C(=O)c4ccc(Cl)cc4)CC3C2)n1 (centres undefined)" result="> 88 µM"
compound=CCNc1nc(C)cc(N2CCN(C(=O)c3ccc(Cl)c(C(F)(F)F)c3)CC2)n1 result="> 20 µM"
compound=CCNc1nc(C)cc(N2CCN(S(=O)(=O)c3ccc(Cl)cc3)CC2)n1 result="11 µM"
compound=CCNc1nc(C)cc(N2CCN(C(=O)c3cccc([N+](=O)[O-])c3)CC2)n1 result="> 100 µM"
compound=Cc1cc(N2CCN(C(=O)c3ccc(Cl)cc3)CC2)nc(NC(C)C)n1 result="46 µM"
compound=CCNc1nc(C)cc(N2CCN(C(=O)c3ccc(C)c(C)c3)CC2)n1 result="65 µM"
compound=Cc1cc(N2CCN(C(=O)c3cc(Cl)cc(Cl)c3)CC2)nc(N(C)C)n1 result="67 µM"
compound=CCNc1nc(C)cc(N2CCN(C(=O)c3cccc(C(F)(F)F)c3)CC2)n1 result="80 µM"
compound=CNc1nc(C)cc(N2CCN(S(=O)(=O)c3ccc(F)cc3)CC2)n1 result="99 µM"
compound=CCNc1cc(C)nc(N2CCC(NC(=O)c3cc(Cl)cc(Cl)c3)CC2)n1 result="48 µM"
